B1: glmS ribozyme (parent)
chain: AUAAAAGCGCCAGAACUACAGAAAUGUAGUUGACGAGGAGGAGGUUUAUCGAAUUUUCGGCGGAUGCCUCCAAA

variants of: B1; assay: self-cleavage kobs at 2500 uM GlcN6P; higher = faster cleavage; RNA array; conditions: with glucosamine-6-phosphate
Fewer inactive variants are shown than the library holds.
The following variants are shown together with reported self-cleavage kobs at 2500 uM GlcN6P values.

AUAAAAGCGCUAGAACUACAGAAAUGUAGUCAACGAGGAGGAGGUUUAUCGAAUUUUCGGCGGUUGCCUCCAAA [C11U U31C G32A A64U]
< 1e-05 s⁻¹

q: Fill in: self-cleavage kobs at 2500 uM GlcN6P of AUAAAAGCGCCAGAAUUACAGAAAUGUAGUUGACUAGUAGGAGGUUUAUAGAAUUUUCGGCGGAUGCCUCCAAA [C16U G35U G38U C50A] is ___
a: < 1e-05 s⁻¹

q: Fill in: self-cleavage kobs at 2500 uM GlcN6P of AUAAAAGCGCCAGAACUACAGAAAUGUAGUUGAAGAGGAGGAGGUUUUUUGAAUUUUCGGCGGAUGCCUCCAAA [C34A A48U C50U] is ___
a: < 1e-05 s⁻¹
